Reference source: paper PMC8364686

# Assay Overview: BI 187004 concentration in subcutaneous adipose tissue biopsies (LC–MS/MS)
# Format: in vivo, human
# Condition Summary: male, human, subcutaneous adipose tissue and plasma, oral; 240 mg single dose; 10 h; read-out: AT:plasma ratio (range) 10 h
Measure: Kp at 10 h
The response must contain the number and no unit.

input: State its Kp at 10 h for this compound: N#Cc1ccc2c(c1)[C@H]1CCCN(C(=O)c3ccc4[nH]cnc4c3)[C@H]1C2 [BI 187004]
output: 25.1

----------
# Assay Overview: Plasma pharmacokinetics of BI 187004 after single oral doses (LC–MS/MS)
# Condition Summary: male, human, plasma, po, 240 mg, BI 187004 plasma concentrations, Median, 240 mg single oral, planned time 48 h
Measure: concentration at 48 h

input: Indicate the recorded concentration at 48 h value for this compound: N#Cc1ccc2c(c1)[C@H]1CCCN(C(=O)c3ccc4[nH]cnc4c3)[C@H]1C2 [BI 187004]
output: 461 nM

----------
# Assay Overview: Plasma pharmacokinetics of BI 187004 after single oral doses (LC–MS/MS)
# Condition Summary: male, human, plasma, po, 240 mg, BI 187004 plasma concentrations, Mean, 240 mg single oral, planned time 6 h
Measure: concentration at 6 h
For clarity, give the value followed by its unit.

input: Indicate its recorded concentration at 6 h; the compound in question is N#Cc1ccc2c(c1)[C@H]1CCCN(C(=O)c3ccc4[nH]cnc4c3)[C@H]1C2 [BI 187004]
output: 4.33 µM

----------
# Assay Overview: Plasma pharmacokinetics of BI 187004 after single oral doses (LC–MS/MS)
# Condition Summary: male, human, plasma, po, 40 mg, BI 187004 plasma concentrations, 40 mg single oral, planned time 2.5 h, gMean
Measure: concentration at 2.5 h (nM)
Supply the numeric figure in nM, leaving out any unit text.

input: Provide measured concentration at 2.5 h value, entry: N#Cc1ccc2c(c1)[C@H]1CCCN(C(=O)c3ccc4[nH]cnc4c3)[C@H]1C2 [BI 187004]
output: 1710

----------
# Assay Overview: Plasma pharmacokinetics of BI 187004 after single oral doses (LC–MS/MS)
# Condition Summary: male, human, plasma, po, 5 mg, Plasma concentration Median, 5 mg single oral; 6 h
Measure: concentration at 6 h (nM)
Answer format: numeric, nM implied, no suffix.

input: Read off the recorded concentration at 6 h for N#Cc1ccc2c(c1)[C@H]1CCCN(C(=O)c3ccc4[nH]cnc4c3)[C@H]1C2 [BI 187004]
output: 78.8

----------
# Assay Overview: Plasma pharmacokinetics of BI 187004 after single oral doses (LC–MS/MS)
# Condition Summary: male, human, plasma, po, 240 mg, BI 187004 plasma concentrations, Median, 240 mg single oral, planned time 96 h
Measure: concentration at 96 h (nM)
Dear colleague, please return just the value in nM, with no unit written.

input: Please give measured concentration at 96 h of the following entry: N#Cc1ccc2c(c1)[C@H]1CCCN(C(=O)c3ccc4[nH]cnc4c3)[C@H]1C2 [BI 187004]
output: 36.4

----------
# Assay Overview: Plasma pharmacokinetics of BI 187004 after single oral doses (LC–MS/MS)
# Condition Summary: male, human, plasma, po, 2.5 mg, Plasma concentration gMean, 2.5 mg single oral; 10 h
Measure: concentration at 10 h (nM)
Respond numerically; units are nM and should not be typed.

input: Fill in concentration at 10 h for record `N#Cc1ccc2c(c1)[C@H]1CCCN(C(=O)c3ccc4[nH]cnc4c3)[C@H]1C2`
output: 4.38

----------
# Assay Overview: Plasma pharmacokinetics of BI 187004 after single oral doses (LC–MS/MS)
# Condition Summary: male, human, plasma, po, 40 mg, BI 187004 plasma concentrations, 40 mg single oral, planned time 96 h, gMean
Measure: concentration at 96 h
Kindly report the value followed by its unit.

input: Please supply the value of reported concentration at 96 h for the item `N#Cc1ccc2c(c1)[C@H]1CCCN(C(=O)c3ccc4[nH]cnc4c3)[C@H]1C2`
output: 0.0122 µM

----------
# Assay Overview: Plasma pharmacokinetics of BI 187004 after single oral doses (LC–MS/MS)
# Condition Summary: male, human, plasma, po, 20 mg, BI 187004 plasma concentrations, 20 mg single oral, planned time 48 h, gMean
Measure: concentration at 48 h (nM)
Expressed in nM, but write only the number.

input: Fill in reported concentration at 48 h for this entry: `N#Cc1ccc2c(c1)[C@H]1CCCN(C(=O)c3ccc4[nH]cnc4c3)[C@H]1C2`
output: 35.9

----------
# Assay Overview: BI 187004 concentration in subcutaneous adipose tissue biopsies (LC–MS/MS)
# Assay type: in vivo, human
# Condition Summary: male, human, subcutaneous adipose tissue, oral; 20 mg single dose; adipose tissue; 10 h; read-out: AT C10 gMean (range)
Measure: concentration at 10 h (nM)
Give just the numeric value; nM need not be written.

input: Fill in concentration at 10 h for record `N#Cc1ccc2c(c1)[C@H]1CCCN(C(=O)c3ccc4[nH]cnc4c3)[C@H]1C2`
output: 38.1

----------
# Assay Overview: Plasma pharmacokinetics of BI 187004 after single oral doses (LC–MS/MS)
# Condition Summary: male, human, plasma, po, 160 mg, BI 187004 plasma concentrations, 160 mg single oral, planned time 3 h, gMean
Measure: concentration at 3 h (µM)
Give the quantity in µM, number only.

input: Assign concentration at 3 h to the following record: N#Cc1ccc2c(c1)[C@H]1CCCN(C(=O)c3ccc4[nH]cnc4c3)[C@H]1C2 [BI 187004]
output: 5.91

----------
# Assay Overview: Plasma pharmacokinetics of BI 187004 after single oral doses (LC–MS/MS)
# Condition Summary: male, human, plasma, po, 5 mg, Plasma concentration Median, 5 mg single oral; 3 h
Measure: concentration at 3 h (nM)
I only need the number, in nM, no unit after it.

input: Give the reported value of concentration at 3 h for this record: `N#Cc1ccc2c(c1)[C@H]1CCCN(C(=O)c3ccc4[nH]cnc4c3)[C@H]1C2`
output: 113

----------
# Assay Overview: Plasma pharmacokinetics of BI 187004 after single oral doses (LC–MS/MS)
# Condition Summary: male, human, plasma, po, 360 mg, BI 187004 plasma concentrations, gMean, 360 mg single oral, planned time 1.5 h
Measure: concentration at 1.5 h (µM)
Give the value in µM but do not write µM after it.

input: Supply measured concentration at 1.5 h of N#Cc1ccc2c(c1)[C@H]1CCCN(C(=O)c3ccc4[nH]cnc4c3)[C@H]1C2 [BI 187004] in your reply.
output: 11.1

----------
# Assay Overview: Plasma pharmacokinetics of BI 187004 after single oral doses (LC–MS/MS)
# Condition Summary: male, human, plasma, po, 360 mg, BI 187004 plasma concentrations, Min, 360 mg single oral, planned time 5 h
Measure: concentration at 5 h

input: Could you please provide reported concentration at 5 h for `N#Cc1ccc2c(c1)[C@H]1CCCN(C(=O)c3ccc4[nH]cnc4c3)[C@H]1C2` ? Thanks!
output: 4.81 µM

----------
# Assay Overview: Plasma pharmacokinetics of BI 187004 after single oral doses (LC–MS/MS)
# Condition Summary: male, human, plasma, po, 160 mg, BI 187004 plasma concentrations, 160 mg single oral, planned time 6 h, gMean
Measure: concentration at 6 h (µM)
Quick note: give the figure in µM, leave out the unit.

input: // fetch concentration at 6 h given entry `N#Cc1ccc2c(c1)[C@H]1CCCN(C(=O)c3ccc4[nH]cnc4c3)[C@H]1C2`
output: 4.29

----------
# Assay Overview: BI 187004 concentration in subcutaneous adipose tissue biopsies (LC–MS/MS)
# Format: in vivo, human
# Condition Summary: male, human, subcutaneous adipose tissue / plasma, oral; 40 mg single dose; 24 h; read-out: AT:plasma ratio (range) 24 h
Measure: Kp at 24 h

input: Find the measured Kp at 24 h of `N#Cc1ccc2c(c1)[C@H]1CCCN(C(=O)c3ccc4[nH]cnc4c3)[C@H]1C2` and report it.
output: 8.58

----------
# Assay Overview: Plasma pharmacokinetics of BI 187004 after single oral doses (LC–MS/MS)
# Condition Summary: male, human, plasma, po, 160 mg, BI 187004 plasma concentrations, 160 mg single oral, planned time 10 h, Mean
Measure: concentration at 10 h (µM)
The response must be a number in µM with no trailing unit.

input: Look up and state reported concentration at 10 h for `N#Cc1ccc2c(c1)[C@H]1CCCN(C(=O)c3ccc4[nH]cnc4c3)[C@H]1C2`
output: 3.09

----------
# Assay Overview: Plasma pharmacokinetics of BI 187004 after single oral doses (LC–MS/MS)
# Condition Summary: male, human, plasma, po, 240 mg, BI 187004 plasma concentrations, gMean, 240 mg single oral, planned time 96 h
Measure: concentration at 96 h (nM)
Please state the figure in nM; there is no need to write the unit.

input: In one line, give reported concentration at 96 h of the entry N#Cc1ccc2c(c1)[C@H]1CCCN(C(=O)c3ccc4[nH]cnc4c3)[C@H]1C2 [BI 187004] .
output: 41.9
